Values were extracted from ChEMBL document CHEMBL3217590.

System: Candida albicans
procedure-details: Anticandidal activity against Candida albicans ATCC750 after 24 to 48 hrs by broth microdilution technique
Format: functional
value-type: MIC (µg/mL)
Form entry: value (µg/mL) — number only.

Solved cases below.
• O=C1/C(=C/c2ccccc2[N+](=O)[O-])SC(=S)N1Cc1ccncc1 = 50
• O=C1/C(=C/c2cccnc2)SC(=S)N1Cc1ccncc1 = 3.12
• OC(Cn1cncn1)(Cn1cncn1)c1ccc(F)cc1F [FLUCONAZOLE] = 0.5
• C=CCSC(=S)NCc1ccncc1 = 3.12
• FC(F)(F)c1ccc(CSC(=S)NCc2ccncc2)cc1 = 3.12
• CCSC(=S)NCc1ccncc1 = 12.5
• CCCCSC(=S)NCc1ccncc1 = 12.5
• O=C1/C(=C/c2ccncc2)SC(=S)N1Cc1ccncc1 = 6.25
• O=C1/C(=C/c2cc3c(cc2[N+](=O)[O-])OCO3)SC(=S)N1Cc1ccncc1 = 6.25
• S=C(NCc1ccncc1)SCc1ccccc1 = 3.12

O=C1CSC(=S)N1Cc1ccncc1 has a reported MIC of 6.25

CCCSC(=S)NCc1ccncc1 has a reported MIC of 12.5

====

Test system: Candida albicans
procedure-details: Anticandidal activity against Candida albicans ATCC-MYA 2950 after 24 to 48 hrs by broth microdilution technique
Assay type: functional
Please use T for MIC under 2 µg/mL and F for everything else, ties included.

Examples with answers:
* CCSC(=S)NCc1ccncc1 | F
* CCCSC(=S)NCc1ccncc1 | F
* O=C1CSC(=S)N1Cc1ccncc1 | F
* OC(Cn1cncn1)(Cn1cncn1)c1ccc(F)cc1F [FLUCONAZOLE] | T
* C=CCSC(=S)NCc1ccncc1 | T
* CCCCSC(=S)NCc1ccncc1 | F
* O=C1/C(=C/c2cccnc2)SC(=S)N1Cc1ccncc1 | T
* O=C1/C(=C/c2ccccc2[N+](=O)[O-])SC(=S)N1Cc1ccncc1 | F

Problem: Does the reported MIC of the following compound sit strictly below 2 µg/mL? FC(F)(F)c1ccc(CSC(=S)NCc2ccncc2)cc1
Solution: T

Problem: Does the reported MIC of the following compound sit strictly below 2 µg/mL? S=C(NCc1ccncc1)SCc1ccccc1
Solution: T

Problem: Does the reported MIC of the following compound sit strictly below 2 µg/mL? O=C1/C(=C/c2ccncc2)SC(=S)N1Cc1ccncc1
Solution: T

Problem: Does the reported MIC of the following compound sit strictly below 2 µg/mL? O=C1/C(=C/c2ccco2)SC(=S)N1Cc1ccncc1
Solution: F

Problem: Does the reported MIC of the following compound sit strictly below 2 µg/mL? O=C1/C(=C/c2cc3c(cc2[N+](=O)[O-])OCO3)SC(=S)N1Cc1ccncc1
Solution: T

====

Test system: Sporothrix schenckii
procedure-details: Antifungal activity against Sporothrix schenckii after 72 to 96 hrs by broth microdilution technique
Format: functional
In this section we review reported MIC values for a set of compounds.
Form entry: value (µg/mL) — number only.

* CCCCSC(=S)NCc1ccncc1 | 3.12
* O=C1/C(=C/c2ccc([N+](=O)[O-])cc2)SC(=S)N1Cc1ccncc1 | 25
* O=C1/C(=C/c2cccnc2)SC(=S)N1Cc1ccncc1 | 1.56
* O=C1/C(=C/c2cc3c(cc2[N+](=O)[O-])OCO3)SC(=S)N1Cc1ccncc1 | 1.56

CCSC(=S)NCc1ccncc1 has a reported MIC of 1.56
